# tgt: beta1-adrenoceptor (Homo sapiens)
# Sequence (P08588 whole entry): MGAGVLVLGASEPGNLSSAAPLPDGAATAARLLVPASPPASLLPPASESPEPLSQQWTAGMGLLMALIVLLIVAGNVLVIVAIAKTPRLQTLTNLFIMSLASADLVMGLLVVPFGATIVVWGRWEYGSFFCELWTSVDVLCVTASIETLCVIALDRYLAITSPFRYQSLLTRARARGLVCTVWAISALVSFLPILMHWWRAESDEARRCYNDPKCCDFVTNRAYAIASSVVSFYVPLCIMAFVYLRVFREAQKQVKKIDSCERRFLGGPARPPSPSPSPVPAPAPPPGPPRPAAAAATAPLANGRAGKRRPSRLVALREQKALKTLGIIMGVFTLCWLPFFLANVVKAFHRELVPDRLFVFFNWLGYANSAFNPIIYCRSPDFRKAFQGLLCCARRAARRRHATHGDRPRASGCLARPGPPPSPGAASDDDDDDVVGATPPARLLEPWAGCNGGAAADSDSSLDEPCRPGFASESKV
# assayProcedure: 3H-CGP12177 whole-cell binding, CHO cells expressing human beta1-adrenoceptor
# Parameters: expressed in transfected cells; host or cells: CHO cells
# conditionNotes: 3H-CGP 12177 whole cell binding, log KD, mean ± s.e.mean, read-out: Beta 1 Log KD (converted)
The entries below are paired with their reported Kd.
// return numeric value only (unit: nM, not printed)

Look up Kd: O=C(Nc1ccccc1)OCCNCC(O)COc1ccc(OCCOC2CCCC2)cc1 (stereo not shown)
29.5

Look up Kd: Nc1cccc(NC(=O)NCCNCC(O)COc2ccc(OCCOC3CCCC3)cc2)c1 (stereo not shown) [60b]
20

Look up Kd: CCOCCOc1ccc(OCC(O)CNCCNC(=O)Nc2cccc(Cl)c2)cc1 (stereo not shown) [46f]
31.6

Look up Kd: Cc1cccc(CC(=O)NCCNCC(O)COc2ccc(OCCOC3CCCC3)cc2)c1 (stereo not shown) [62q]
26.9

Look up Kd: CCOCCOc1ccc(OCC(O)CNCCNC(=O)Nc2ccc(O)cc2)cc1 (stereo not shown) [46d]
83.2

Look up Kd: O=C(Cc1ccccc1F)NCCNCC(O)COc1ccc(OCCOC2CCCC2)cc1 (stereo not shown) [62g]
2.4
